// data source = a melting point compilation (Tetko et al.; mined from patent text by program, amines drawn as free bases though some values may be those of a salt)

Measured melting point, listed per entry.

COc1cc2c(cc1C(F)(F)F)N(C(=O)Nc1ccc(OCc3ccncc3)nc1)CC2	187 to 189 °C
c1ccc2nc(COc3ccc4[nH]ccc4c3)ccc2c1	134 to 137 °C
O=C(CF)NOC(=O)C(F)(F)F	56 to 59 °C

Field request: melting point | item: "COc1cc(COc2nn(-c3ccccc3)cc2C=O)ccc1OCc1nc(-c2cccc(C#N)c2)oc1C"
161 to 162 °C

Sample "CC(=O)Nc1ccc(OCC(=O)O)c(C(=O)NCc2ccc(Br)cc2F)c1" — what was its melting point?
235 °C

# melting point lookup, item COC(=O)C1CCCN1S(N)(=O)=O (stereo not given)
166 to 168 °C

// lookup melting point for "CC(=O)Nc1cccc(-c2nc3sccn3c2-c2ccnc(N[C@@H]3CCCN(S(=O)(=O)c4ccc(Cl)cc4)C3)n2)c1"
169 to 174 °C

Give the measured melting point of "Cc1ccc2nc(O)c(O)nc2c1" .
> 300 °C

Request the reported melting point associated with CN1CCC(C2=C(C#N)C(c3ccccc3Cl)c3c[nH]nc3N2)CC1 (stereo not given)
> 270 °C

Reported melting point for "CCCNCCCOc1ccc(-c2ccc(C(=O)OCC)cc2)cc1-c1ccc2c(c1)C(C)(C)CCC2(C)C" : what is it?
120 °C

###

Parameter: melting point. Scope: all listed entries.

Some entries whose results are on file:
CC(C)(C)OC(=O)N=C(N)N(CCc1ccc(OCCC2Oc3c(Cl)cc(Cl)cc3N(Cc3cccc(Cl)c3)C2=O)cc1)C(=O)OC(C)(C)C (stereo not given)	115 to 117 °C
Cc1cc(C#N)sc1-c1ccc2c(c1)C(C)(C)OC(=S)N2	211 to 212 °C
CC(C)(C)OC1CCC(C(=O)O)CC1 (stereo not given)	100 to 105 °C

What value of measured melting point is listed for CC12C=CC(=O)C=C1C(F)CC1C2=CCC2(C)C(C(=O)CCl)=CCC12 (stereo not given) ?
196 to 200 °C

Look up melting point for this compound: O=C(O)CC1CCCc2c1n(Cc1ccccc1Cl)c1c(F)cc(F)cc21 (stereo not given)
197 to 198 °C

Consider the compound shown here: CC(=O)OC1CCC2(COS(=O)(=O)c3ccc(C)cc3)C(=CCC3C2CCC2(C)C(OC(C)=O)CCC32)C1 (stereo not given) What is its recorded melting point?
135 to 137 °C

Give the measured melting point of "Cc1c(C(=O)O)ccc(S(C)(=O)=O)c1C1=NOCC1" .
182 to 184 °C

May I ask what melting point has been recorded for "CC(=O)NC[C@H]1CN(c2ccc(C3CCN(S(C)(=O)=O)CC3)c(F)c2)C(=O)O1" ?
240 to 242 °C

Using the record for "CCn1ncc2c1ncc1c(=O)[nH]c3ncnn3c12" , report its melting point.
175 to 177 °C

Give the measured melting point of "Cc1nc(SC(=N)N)[nH]c1C" .
283 to 285 °C

###

# Lookup of reported melting point keyed by entry

O=C(Nc1nncs1)c1sc(Nc2ccccc2)c2c1CCc1cnoc1-2	227 to 229 °C
Nc1ncccc1-c1nc2ccc(-c3cccnc3)nc2n1-c1ccc(NC(=O)c2ccccc2)cc1	222 to 224 °C
COc1ccccc1C1=CC(C)(C)Oc2ccc(C#N)cc21	109 to 111 °C
CC1(C)SC2C(NC(=O)C(NC(=O)CBr)c3ccccc3)C(=O)N2C1c1nnn[nH]1 (stereo not given)	128 to 135 °C
CC(=O)OCC1OC(n2c(=S)[nH]c3cc(Cl)c(Cl)cc32)C(OC(C)=O)C1OC(C)=O (stereo not given)	241 °C

If you can, please state the reported melting point value of "C=CC(=O)NCCCCOc1ccccc1" .
46 to 47 °C

Given the entry "CCOC(=O)c1[nH]c(=O)c(CC(C)C)[n+]([O-])c1OC" , report its measured melting point.
153 to 155 °C

Fill in: melting point of "N#Cc1ccc(-c2cc(-c3cc(Br)ccc3Cl)no2)cc1" is ___
198 to 199 °C

melting point lookup needed for CN(C(=O)CCCCC1SCC2NC(=O)NC21)c1ccc(/C=C/c2c(F)cccc2F)cc1 (stereo not given) , thanks.
91 to 93 °C

Please report the recorded melting point for "CCc1cc(C(C)=O)c(O)cc1OCCCCCn1cncn1" .
87 °C
